System: intestinal alkaline phosphatase [Mus musculus]
Experiment: mouse intestinal phosphatase enzyme activation – biochemical, luminescence, single concentration, confirmation (AID 434970)
Conditions: purified mouse IAP, CDP-Star luminescence, 30 min, at 10 µM; active compounds read low
About 310 (2.8%) of roughly 11,000 compounds were called active. Many of the other results were omitted from the sample, so actives are more common in it than they were.
assayReadout: activity change, negative = activation (%)
Numbers only, in %.

See these solved cases before continuing.
{"molecularString": "C[C@H](CO)N1C[C@H](C)[C@@H](CN(C)S(=O)(=O)c2cccs2)Oc2ccc(NC(=O)Nc3ccccc3)cc2C1=O", "assayReadout": "activity change, negative = activation", "resultValue": -152}
{"molecularString": "C[C@H](CO)N1C[C@H](C)[C@@H](CN(C)C(=O)Nc2ccc(C(F)(F)F)cc2)Oc2ccc(NC(=O)NC3CCCCC3)cc2C1=O", "assayReadout": "activity change, negative = activation", "resultValue": -76.3}
{"molecularString": "CCc1ccc(NC(=O)Nc2ccc3c(c2)N(C)C(=O)CS3)cc1", "assayReadout": "activity change, negative = activation", "resultValue": -114}
{"molecularString": "CCCCN1CCc2c([nH]c3c(C)cccc23)C1=O", "assayReadout": "activity change, negative = activation", "resultValue": -6.35}
{"molecularString": "COc1cc(-c2nnc3n2N=C(c2ccccc2)CS3)cc(OC)c1OC", "assayReadout": "activity change, negative = activation", "resultValue": 0.4}
{"molecularString": "COc1ccc(NC(=O)Nc2ccc3c(c2)C(=O)N([C@H](C)CO)C[C@H](C)[C@@H](CN(C)C(=O)Nc2ccc4c(c2)OCO4)O3)cc1", "assayReadout": "activity change, negative = activation", "resultValue": -62.9}

Below are some molecules; for each one, tell me its activity change, negative = activation.
1. Cc1ccc(NC(=O)Nc2ccc3c(c2)N(C)C(=O)CS3)cc1C
2. CC(C)CCNC(=O)Nc1ccc2c(c1)N(C)C(=O)CS2
3. COc1ccc(NC(=O)Nc2ccc3c(c2)C(=O)N([C@H](C)CO)C[C@H](C)[C@@H](CN(C)C(=O)Nc2ccc(C(F)(F)F)cc2)O3)cc1
4. COc1ccc(NC(=O)Nc2ccc3c(c2)C(=O)N([C@@H](C)CO)C[C@@H](C)[C@@H](CN(C)S(=O)(=O)c2cccs2)O3)cc1
5. Cc1ccc(C(=O)NCC(=O)O)cc1S(=O)(=O)N1CCCCC1
6. CN1C(=O)CSc2ccc(NC(=O)NCCC3=CCCCC3)cc21

Data returned:
-91.7
-52.8
-68.8
-75.9
0.55
-122

Below are some molecules; for each one, tell me its activity change, negative = activation.
1. COc1ccccc1NS(=O)(=O)c1cccc(NC(=O)Nc2ccc(Cl)cc2)c1
2. COc1ccc(NC(=S)Nc2cccc(S(=O)(=O)N3CCCCC3)c2)cc1
3. O=C(Nc1ccccc1)Nc1ccc(Cl)c(S(=O)(=O)N2CCOCC2)c1
4. Cc1ccc(C)c(S(=O)(=O)N2CCN(CC(=O)NC(=O)NCc3ccccc3)CC2)c1
5. COc1ccc(OC)c(NS(=O)(=O)c2ccc(NC(C)=O)cc2)c1
6. Cc1cc(C)cc(NC(=O)Nc2ccccc2N2CCCCC2)c1

Data returned:
[-92.2, -1.4, -53.4, 2.8, 1.15, -112]

Data request: Return the recorded activity change, negative = activation value; entry: O=C(CNC1CCCCCC1)Nc1ccccc1N1CCCCC1
Data returned: -3.7

The values you see were collected from PubChem BioAssay AID434970.
